The measurements presented in this section are drawn from patent US9540314B2.

Can you tell me Efficacy for the items I'm about to list?
- Test system: Septoria tritici
- assay: In vivo preventive test on Septoria tritici (wheat)
- run.conditions: 500 ppm of active ingredient; wheat plants, preventive spray; grading 24 days after contamination
- Description: The active ingredients tested are prepared by homogenization in a mixture of acetone/tween/DMSO, and then diluted with water to obtain the desired active material concentration. Wheat plants (“Scipion” variety), sown in starter cups on a 50/50 peat soil pozzolana substrate and grown at 22° C., are treated at the 1 leaf stage (10 cm height) by spraying with the active ingredient prepared as described above. […]
Express your answer in %, writing the number without its unit.

Tested on Septoria tritici: Cn1nc(C(F)F)c(C(=O)N(Cc2ccccc2C2=CCCCCC2)C2CC2)c1F [I.53] . Observed Efficacy: 100

Tested on Septoria tritici: Cn1nc(C(F)F)c(C(=O)N(Cc2c(C(F)(F)F)ccc(C3=CCCC3)c2F)C2CC2)c1F [I.7] . Observed Efficacy: 97

Tested on Septoria tritici: Cn1nc(C(F)F)c(C(=S)N(Cc2cc(Cl)ccc2C2=CCCCC2)C2CC2)c1F [I.43] . Observed Efficacy: 97

Tested on Septoria tritici: Cn1nc(C(F)F)c(C(=O)N(Cc2ccccc2C2=CCCC2)C2CC2)c1F [I.3] . Observed Efficacy: 98

Tested on Septoria tritici: Cn1cc(C(=O)N(Cc2ccccc2C2=CCCCCC2)C2CC2)c(C(F)F)c1 [I.50] . Observed Efficacy: 100

###

- Test system: Uromyces appendiculatus
- assay: In vivo preventive test on Uromyces appendiculatus (bean rust)
- run.conditions: 500 ppm of active ingredient; bean plants, preventive spray; grading 11 days after contamination (table K1)
- Experimental: The active ingredients tested are prepared by homogenization in a mixture of acetone/tween/DMSO, and then diluted with water to obtain the desired active material concentration. After 24 hours, the plants are contaminated by spraying the leaves with an aqueous suspension of Uromyces appendiculatus spores (150 000 spores per mL). The spores are collected from infected plants and are suspended in water containing 2.5 mL/L of Tween 80 at 10%. […]
Can you tell me Efficacy for the items I'm about to list?
Express your answer in %, writing the number without its unit.

# Efficacy of O=C(c1ccsc1I)N(Cc1ccccc1C1=CCCCCC1)C1CC1 = 75

# Efficacy of Cn1nc(C(F)F)c(C(=O)N(Cc2ccccc2C2=CCCCC2)C2CC2)c1Cl = 84

# Efficacy of Cn1nc(C(F)F)c(C(=O)N(Cc2ccccc2C2=CCCCCC2)C2CC2)c1F = 100

# Efficacy of Cn1nc(C(F)F)c(C(=O)N(Cc2c(C3=CCCC3)ccc(F)c2F)C2CC2)c1F = 100

# Efficacy of Cn1nc(C(F)F)c(C(=O)N(Cc2ccccc2C2=CCCCC2)C2CC2)c1F = 100

# Efficacy of Cn1nc(C(F)F)c(C(=O)N(Cc2ccccc2C2=CCCCCC2)C2CC2)c1Cl = 96

# Efficacy of Cn1cc(C(=O)N(Cc2ccccc2C2=CCCCCC2)C2CC2)c(C(F)F)n1 = 99

# Efficacy of Cn1nc(C(F)F)c(C(=O)N(Cc2ccccc2C2=CCCC2)C2CC2)c1Cl = 99

# Efficacy of Cn1nc(C(F)F)c(C(=O)N(Cc2ccccc2C2=CCCC2)C2CC2)c1F = 100

# Efficacy of Cn1cc(C(=O)N(Cc2ccccc2C2=CCCCC2)C2CC2)c(C(F)F)n1 = 98

# Efficacy of Cn1nc(C(F)F)c(C(=S)N(Cc2cc(Cl)ccc2C2=CCCCC2)C2CC2)c1F = 89

# Efficacy of Cn1nc(C(F)F)c(C(=O)N(Cc2c(C(F)(F)F)ccc(C3=CCCC3)c2F)C2CC2)c1F = 98

# Efficacy of Cn1cc(C(=O)N(Cc2ccccc2C2=CCCCCC2)C2CC2)c(C(F)F)c1 = 99

# Efficacy of Cn1cc(C(=O)N(Cc2ccccc2C2=CCCCC2)C2CC2)c(C(F)F)c1 = 78

# Efficacy of Cn1cc(C(=O)N(Cc2ccccc2C2=CCCC2)C2CC2)c(C(F)F)n1 = 100

# Efficacy of CC1CC=C(c2ccccc2C(C)N(C(=O)c2c(C(F)F)nn(C)c2F)C2CC2)CC1 (mixture of isomers) = 75

# Efficacy of O=C(c1ccsc1I)N(Cc1ccccc1C1=CCCC1)C1CC1 = 88
